The following sequences are listed with their measured folding enthalpy values.
Experiment: folding enthalpy; higher = less favourable; fluorescence melt of hairpins on a sequencing array, two-state fit
Details: sodium 0.088 M
The figure you give is taken to be in kcal/mol; do not add the unit.

Some solved cases for reference:
GATCTTATAAAAGATC ((((((....)))))); -25.5
GTAGTTCGAAAGAATTAC (((.(((....))).))); -26.8
GATCTAGTCCTAGATC ((((((....)))))); -31.9
GCCGCCGAAAGGCCGGGC ((((((....)))..))); -16.9
GTATACGAAAGTACTTAC ((((((....)))..))); -13.5
GACCTGGGAAACCAGACC (..((((....))))..); -10.3
GAGGACCGAAAGGTCTC (((.(((....)))))); -10.9
GGCGTCGAAAGACAGCC ((((((....))).))); -34.3

Task: Requested field: folding enthalpy. Item: GATCGGGACGCCGATC ((((((....))))))
Result: -36.6

Task: Requested field: folding enthalpy. Item: GCCGAGCGAAAGCTTAGC ((..(((....)))..))
Result: -14.7

Task: Requested field: folding enthalpy. Item: GATCTGCGTCAGATC ((((((...))))))
Result: -29.4

Task: Requested field: folding enthalpy. Item: GACTCCGAAAGGAGAGTC ((((((....)))..)))
Result: -12.9

Task: Requested field: folding enthalpy. Item: GCTACCGAAAGGTTAAGC ((((((....)))..)))
Result: -19.6

----------
Experiment: folding enthalpy; higher = less favourable; fluorescence melt of hairpins on a sequencing array, two-state fit
Settings: sodium 0.088 M
Threshold check on folding enthalpy: at or above -20 kcal/mol gives Fulfilled, strictly below gives Not fulfilled.

Task: Is folding enthalpy at least -20 kcal/mol? Consider GCACGCGGAAACGCACGC ((..(((....)))..))
Result: Fulfilled

Task: Is folding enthalpy at least -20 kcal/mol? Consider GCGATCGAAAGATGCGC ((((((....))).)))
Result: Not fulfilled

Task: Is folding enthalpy at least -20 kcal/mol? Consider GGGCCGCGAAAGCGACCC (((.(((....))).)))
Result: Not fulfilled

Task: Is folding enthalpy at least -20 kcal/mol? Consider GAGCGAGGAAACTCACTC (((.(((....))).)))
Result: Not fulfilled

Task: Is folding enthalpy at least -20 kcal/mol? Consider GTGGTGAAAACCAC (((((....)))))
Result: Not fulfilled

Task: Is folding enthalpy at least -20 kcal/mol? Consider GCGTCCGGACGC ((((....))))
Result: Not fulfilled

Task: Is folding enthalpy at least -20 kcal/mol? Consider GCACCGCGAAAGCCGAGC ((.(.((....)).).))
Result: Fulfilled

Task: Is folding enthalpy at least -20 kcal/mol? Consider GTCCCCGAAAGGGAGAC ((((((....))).)))
Result: Not fulfilled

Task: Is folding enthalpy at least -20 kcal/mol? Consider GCTTATCGAAAGATAGC (((.(((....))))))
Result: Not fulfilled

----------
Assay: folding enthalpy; higher = less favourable; fluorescence melt of hairpins on a sequencing array, two-state fit
Conditions: sodium 0.088 M
READOUT_KIND: folding enthalpy (kcal/mol)
The figure you give is taken to be in kcal/mol; do not add the unit.

CGCCTCCGGAAACGGGCG (((..(((....)))))); -25.6
GCTCCGCGAAAGCGAGC (((.(((....)))))); -20.6
GTTGTCGAAAGACCGAAC ((((((....)))..))); -11.3
TTGGGGAAACCCAA (((((....))))); -17.4
GCGAACATTCGC ((((....)))); -21.4

Task: Requested field: folding enthalpy. Item: GCGTCCTCGAAAGAGCGC (((..(((....))))))
Result: -24.9

Task: Requested field: folding enthalpy. Item: GAACTGGGAAACTAGTTC (((((.(....).)))))
Result: -37.9

Task: Requested field: folding enthalpy. Item: GTAACCGGAAACGATTAC ((((.((....)).))))
Result: -25.3

Task: Requested field: folding enthalpy. Item: GGGCCCGAAAGGGTTCCC ((((((....)))..)))
Result: -15.2

----------
Experiment: melting temperature; fluorescence melt of hairpins on a sequencing array, two-state fit, raised by 9.35 °C to match UV melts
Conditions: sodium 0.088 M
The following sequences are listed with their measured Tm values.
The figure you give is taken to be in °C; do not add the unit.

Some solved cases for reference:
GTGTGGCGAAAGCCTCAC (((.(((....))).))); 58.9
GATCTATCTGTAGATC ((((((....)))))); 42.9
GCCCCACGAAAGTGGGC (((.(((....)))))); 65.5
GGGGACGAAAGTCAACCC ((((((....)))..))); 49
GCCAGGGGAAACCCCGAC (.(.(((....))).).); 32.6

Task: Requested field: Tm. Item: GATCTGACTCCAGATC ((((((....))))))
Result: 46.6

----------
Assay: folding enthalpy; higher = less favourable; fluorescence melt of hairpins on a sequencing array, two-state fit
Settings: sodium 0.088 M
The following sequences are listed with their measured folding enthalpy values.
The figure you give is taken to be in kcal/mol; do not add the unit.

Some solved cases for reference:
GATCGGGGAAACCTGATC ((((.((....)).)))); -43.8
GATCCGGTCTCGGATC ((((((....)))))); -26.6
GGTCGTCGAAAGACTACC (((.(((....))).))); -30.6
GCGTCGTACGC ((((...)))); -18.3
GTTTTAGGAAACTGAAAC ((((.((....)).)))); -22.1

Task: Requested field: folding enthalpy. Item: GGAGCGCGAAAGCGTCC (((.(((....))))))
Result: -13.9

Task: Requested field: folding enthalpy. Item: GATCCGAGTGCGGATC ((((((....))))))
Result: -40.6

Task: Requested field: folding enthalpy. Item: GTGCTCCGAAAGGACAC (((.(((....))))))
Result: -27.4

Task: Requested field: folding enthalpy. Item: GCCGGTCGAAAGACGGGC (((.(((....))).)))
Result: -39.9

Task: Requested field: folding enthalpy. Item: GTCAGAGGAAACTTTGAC ((((.((....)).))))
Result: -32.4

----------
Experiment: folding enthalpy; higher = less favourable; fluorescence melt of hairpins on a sequencing array, two-state fit
Details: sodium 0.088 M
Threshold check on folding enthalpy: at or above -20 kcal/mol gives T, strictly below gives F.

GGCCTACGAAAGTAGCC (((.(((....)))))); F
GCGGAGCGAAAGCAGCGC (((..((....))..))); T

Task: Is folding enthalpy at least -20 kcal/mol? Consider GGTGGGGCGAAAGCCACC (((..(((....))))))
Result: T

Task: Is folding enthalpy at least -20 kcal/mol? Consider GTTCCCACGAAAGTGAAC (((..(((....))))))
Result: T

Task: Is folding enthalpy at least -20 kcal/mol? Consider GACCGGCGAAAGCCGTC (((.(((....))))))
Result: T

----------
The following sequences are listed with their measured Tm values.
Experiment: melting temperature; fluorescence melt of hairpins on a sequencing array, two-state fit, raised by 9.35 °C to match UV melts
Conditions: sodium 0.088 M
The figure you give is taken to be in °C; do not add the unit.

GATCTCAAATGAGATC ((((((....)))))); 50
GTAGTTACGAAAGTATAC (((..(((....)))))); 23.9
GCACAGGCGAAAGCCTGC (((..(((....)))))); 42.6
GTCCCCCGAAAGGGCGAC (((.(((....))).))); 49.1
GGAAACGAAAGTTCCTCC ((((((....)))..))); 44.1

Now let's try a different one.
Task: Requested field: Tm. Item: GGGTATGGAAACATGCCC (((.(((....))).)))
Result: 54.3

----------
Experiment: melting temperature; fluorescence melt of hairpins on a sequencing array, two-state fit, raised by 9.35 °C to match UV melts
Conditions: sodium 0.088 M
Threshold check on Tm: at or above 50 °C gives 1, strictly below gives -1.

Worked examples follow.
GTGGAACCGAAAGGTCAC (((..(((....)))))); -1
GGAGCGGCGAAAGCCTCC (((..(((....)))))); -1
GAGTATGGAAACATGCTC (((.(((....))).))); -1
GTTTGTGGAAACGTAAAC ((((..(....)..)))); -1
GCTGGAGGAAACTCTAGC (((.(((....))).))); -1
GATCTCTCCCGAGATC ((((((....)))))); 1

Task: Is Tm at least 50 °C? Consider GCTCTGCGAAAGCTCAGC (((..((....))..)))
Result: -1

Task: Is Tm at least 50 °C? Consider GATCTTCGAAAAGATC ((((((....))))))
Result: -1

Task: Is Tm at least 50 °C? Consider GCCCGGGGAAACCTGGGC ((((.((....)).))))
Result: 1
